B1: DCAF4 (parent)
chain: TTKCVRQYEGHVNEYAYLPLHVHE

Variants of: B1
Assay: protein stability index of a GFP-peptide fusion (GPS, HEK-293T) (PSI 1-6); higher = more stable;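 note: lentivirally expressed fusions sorted by FACS into six bins by GFP to DsRed ratio, PSI derived from sequencing read proportions per bin multiplied by bin number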
Conditions: c terminus: a fixed tail appended
Can you tell me protein stability index for the items I'm about to list?
Please reply with the value in numeric form only.

Ask: Annotate the variant E14C with its measured protein stability index.
Reply: 2.03

Ask: Quick one: give measured protein stability index for N13V
Reply: 2.23

Ask: # return recorded protein stability index for input E14Q
Reply: 2.35

Ask: In one line, give reported protein stability index of the entry V22E .
Reply: 3.65

Ask: Give a short answer stating reported protein stability index for N13H .
Reply: 2.5

Ask: Look up and report measured protein stability index for this entry: H23S
Reply: 2.73

Ask: Answer with the recorded protein stability index for the variant listed here: Q7S
Reply: 2.75

Ask: // Input: V5P . Output its protein stability index only.
Reply: 2.95

Ask: Determine its reported protein stability index: P19Q
Reply: 1.75

Ask: Complete the entry with protein stability index for K3C
Reply: 2.62

Ask: Return value of protein stability index for input Y15H , no commentary.
Reply: 3.02

Ask: Quick one: give measured protein stability index for N13E
Reply: 3.55

Ask: Identify protein stability index associated with the variant P19I
Reply: 2.46

Ask: Hello, please tell me recorded protein stability index for this one: N13D
Reply: 2.35

Ask: Using the record for Y8P , state its measured protein stability index.
Reply: 2.42

Ask: Indicate its recorded protein stability index; the variant in question is Y15D
Reply: 3.36

Ask: Give a short answer stating reported protein stability index for R6K .
Reply: 2.63

Ask: Using known records, supply protein stability index for T2E
Reply: 3.23

Ask: Using known records, supply protein stability index for Y15L
Reply: 2.97

Ask: Name the recorded protein stability index of the item V5Q in your answer.
Reply: 2.55

Ask: Give the reported value of protein stability index for this record: V22Q
Reply: 3.3

Ask: Report protein stability index for E24F
Reply: 2.85

Ask: Please report the measured protein stability index for L18F
Reply: 2.51
